Source: patent US20200079833A1

- target_desc: T1, GLP-1R in the INS1e assay (UniProt P32301 22-463, limits assumed)
- T1 sequence (looked up): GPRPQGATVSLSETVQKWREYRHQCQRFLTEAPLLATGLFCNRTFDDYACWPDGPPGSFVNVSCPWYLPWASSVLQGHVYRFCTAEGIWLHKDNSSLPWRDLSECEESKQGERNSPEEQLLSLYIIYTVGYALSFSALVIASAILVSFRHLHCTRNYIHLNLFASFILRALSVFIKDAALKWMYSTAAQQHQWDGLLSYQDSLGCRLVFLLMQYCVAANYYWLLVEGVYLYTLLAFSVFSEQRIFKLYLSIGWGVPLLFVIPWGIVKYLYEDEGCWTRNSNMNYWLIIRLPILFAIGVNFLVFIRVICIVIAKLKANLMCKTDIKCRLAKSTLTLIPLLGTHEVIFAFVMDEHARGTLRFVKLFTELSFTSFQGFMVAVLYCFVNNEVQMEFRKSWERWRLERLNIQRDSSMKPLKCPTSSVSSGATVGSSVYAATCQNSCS
- method_description: cell-based or functional assay
Starred links: 1 amine or outer side, 2 acyl side, 3 side chain; linkers in the order of their positions; H or OH if unused. Non-standard residues stand in square brackets, D forms with d. Groups on a side chain read outwards from the residue. Primed or numbered codes have the meaning given here. No end group written: not given here. *: point of attachment. γGlu = O=C(O)[C@H](CCC(=O)[*:2])N[*:1]; αMeF = C[C@](N)(Cc1ccccc1)C(=O)O; αMeK = C[C@](N)(CCCCN)C(=O)O; Lauroyl = CCCCCCCCCCCC(=O)*; αMeS = C[C@](N)(CO)C(=O)O; PEG2′ = not defined here; Aib = CC(C)(N)C(=O)O
Kindly supply the reported cAMP INS1e assay EC50, Mean pM GLP-1R values for the records listed here.
Answer with a number only, understood to be in pM.

Input H[Aib]EGS[αMeF]TSDV[αMeS]SK([PEG2′-PEG2′-γGlu-Lauroyl])LEGEAA[αMeK]K([PEG2′-PEG2′-γGlu-Lauroyl])FIAK([PEG2′-PEG2′-γGlu-Lauroyl])VVEGG-NH2 [SEQ ID NO: 466] , output reported cAMP INS1e assay EC50, Mean pM GLP-1R. 3200

# return recorded cAMP INS1e assay EC50, Mean pM GLP-1R for input H[Aib]EGS[αMeF]TSDV[αMeS]SYK([PEG2′-PEG2′-γGlu-Lauroyl])EGEK([PEG2′-PEG2′-γGlu-Lauroyl])A[αMeK]EFIAK([PEG2′-PEG2′-γGlu-Lauroyl])VVEGG-NH2 [SEQ ID NO: 469] 4900

Note down cAMP INS1e assay EC50, Mean pM GLP-1R recorded for H[Aib]EGS[αMeF]TSDV[αMeS]SK([PEG2′-PEG2′-γGlu-Lauroyl])LEGK([PEG2′-PEG2′-γGlu-Lauroyl])AA[αMeK]EFIAK([PEG2′-PEG2′-γGlu-Lauroyl])VVEGG-NH2 [SEQ ID NO: 464] 4020

Report cAMP INS1e assay EC50, Mean pM GLP-1R for H[Aib]EGS[αMeF]TSDK([PEG2′-PEG2′-γGlu-Lauroyl])SSYLEK([PEG2′-PEG2′-γGlu-Lauroyl])EAA[αMeK]EFIAK([PEG2′-PEG2′-γGlu-Lauroyl])VVEGG-NH2 [SEQ ID NO: 455] 4910

Specify cAMP INS1e assay EC50, Mean pM GLP-1R for H[Aib]EGS[αMeF]TSDK([PEG2′-PEG2′-γGlu-Lauroyl])SSYLEGEAA[αMeK]K([PEG2′-PEG2′-γGlu-Lauroyl])FIAK([PEG2′-PEG2′-γGlu-Lauroyl])VVEGG-NH2 [SEQ ID NO: 458] and stop. 3370
